Where do these numbers come from? They come from paper PMC12864922.

Measured binding signal accompanies every entry in the list below.
Molecular target: TDP-43 (Homo sapiens, UniProt Q13148 1-414)
Sequence (Q13148 whole entry): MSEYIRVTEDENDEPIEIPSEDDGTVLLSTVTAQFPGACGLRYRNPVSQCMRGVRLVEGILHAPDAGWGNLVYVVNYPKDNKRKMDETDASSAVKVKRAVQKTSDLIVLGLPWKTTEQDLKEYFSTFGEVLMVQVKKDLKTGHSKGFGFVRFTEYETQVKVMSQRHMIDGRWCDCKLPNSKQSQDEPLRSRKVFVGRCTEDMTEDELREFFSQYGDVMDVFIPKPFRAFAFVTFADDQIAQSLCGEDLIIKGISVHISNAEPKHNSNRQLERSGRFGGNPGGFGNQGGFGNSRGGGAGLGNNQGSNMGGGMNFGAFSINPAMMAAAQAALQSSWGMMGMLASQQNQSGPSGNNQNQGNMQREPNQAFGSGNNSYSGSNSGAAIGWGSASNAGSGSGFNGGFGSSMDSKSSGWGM
Assay: RNA Bind-n-Seq with designed 260-mer pool; 25 mM Tris-HCl, 150 mM KCl, 3 mM MgCl2, BSA (printed 500 mg/mL), 20 units/mL SUPERase IN; pH not stated; 500 nM RNA pool, 1 h, 4 C; TDP-43 5, 50, 500 nM; high values mean tight binding
Settings: protein: recombinant; tags: SBP (GST cleaved off with PreScission; pGEX-GST-SBP)
Over roughly 9,900 sequences, “r (bound/input frequency ratio)” has its median near 0.7; the highest 2% begin near 6.5. The full list was thinned out, with the highest values kept by preference.

Study these solved cases before continuing.
Problem: Sample ENSMUSG00000028439.194|Fam219a (ssRNA) RNA: GGGAGUUCUACAGUCCGACGAUCGCUUCGAUAUCCGCAUGCUAAGCCUAUCUGUCCAGGGAACCAGAUUGGUGUCCGAGAUGAGGAAAUGGCUGUGGCCUGGGAAAUCAGUGAGAGGCCGCUUGGGAAUGAGAAUGCAGUGGACUGAAAGCACAGCCUGGCCAUCUGGAACCUGGGUUCUGGUCCCAGCCUCGGCAUUCUCCCUGAGCUCCUAAGCAAUUCCCAGGCUUCUCUAGGGCUUCAGUUCUCACAACUGGAAAAUAAAGAGUAGCUGACAUCACCGACAGAGUCUUUUCAUACCAGACUCUUGCGGUCGCACUAGUGUGGAAUUCUCGGGUGUCAAGG — what was its binding signal?
Result: 0.186 R (bound/input frequency ratio)

Problem: Subsequent entry: ENSMUSG00000022095.266|Fam160b2|1:10;49:69;116:120;252:257 (ssRNA) RNA: GGGAGUUCUACAGUCCGACGAUCGCUUCGAUAUCCGCAUGCUAACACACACACAGAGAGAGAGAGAGAGAGCGAGCUAUGAAUGAAUGUGACACACACACACACACACACACAGAGAGAGAGAGAGAGAGAGAGAGCUGUGAGUACACAUGGGUGCUGCACACGGACAGGAGCAGAUCUUGGUGGAGUGGGUCUACACUUGAGAUUUGUACUCGUUUGAGAGGCUGGGCAAUACUCAAUGCACUUUGGCAUUUGCAUGGUGUCUUCACAACAGCACAGCAAUAAACAUUGUGAUACACACGACCUCUUGCGGUCGCACUAGUGUGGAAUUCUCGGGUGUCAAGG
Result: 4.83 R (bound/input frequency ratio)

Problem: Subsequent entry: ENSMUSG00000022095.271|Fam160b2|19:39;86:90;222:227 (ssRNA) RNA: GGGAGUUCUACAGUCCGACGAUCGCUUCGAUAUCCGCAUGCUAAGCUAUGAAUGAAUGUGACACACACACACACACACACACAGAGAGAGAGAGAGAGAGAGAGAGCUGUGAGUACACAUGGGUGCUGCACACGGACAGGAGCAGAUCUUGGUGGAGUGGGUCUACACUUGAGAUUUGUACUCGUUUGAGAGGCUGGGCAAUACUCAAUGCACUUUGGCAUUUGCAUGGUGUCUUCACAACAGCACAGCAAUAAACAUUGUGAUACACACGACAUGCUGACUCUCCCCAGUCUGCUUUUCUUUCUCUUGCGGUCGCACUAGUGUGGAAUUCUCGGGUGUCAAGG
Result: 4.21 R (bound/input frequency ratio)

Next binder, binding signal to be filled in.
Problem: Sample ENSMUSG00000022095.272|Fam160b2|13:33;80:84;216:221 (ssRNA) RNA: GGGAGUUCUACAGUCCGACGAUCGCUUCGAUAUCCGCAUGCUAGAAUGAAUGUGACACACACACACACACACACACAGAGAGAGAGAGAGAGAGAGAGAGCUGUGAGUACACAUGGGUGCUGCACACGGACAGGAGCAGAUCUUGGUGGAGUGGGUCUACACUUGAGAUUUGUACUCGUUUGAGAGGCUGGGCAAUACUCAAUGCACUUUGGCAUUUGCAUGGUGUCUUCACAACAGCACAGCAAUAAACAUUGUGAUACACACGACAUGCUGACUCUCCCCAGUCUGCUUUUCUUUUCCCCACUCUUGCGGUCGCACUAGUGUGGAAUUCUCGGGUGUCAAGG — what was its binding signal?
Result: 4.46 R (bound/input frequency ratio)
